- Target: T1, FcγRIIB (human, UniProt P31994 43-217, limits assumed)
- T1 construct: also called CD32; not shown: His-tag fused to the C-terminus
- T1 sequence (looked up): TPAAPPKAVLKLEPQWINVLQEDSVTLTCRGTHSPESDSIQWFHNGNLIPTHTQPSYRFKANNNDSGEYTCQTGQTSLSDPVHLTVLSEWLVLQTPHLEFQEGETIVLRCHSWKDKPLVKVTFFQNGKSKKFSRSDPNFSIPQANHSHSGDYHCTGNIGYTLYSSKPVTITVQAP
- Measurement description: ratio of SPR KDs, reference Fc-WT
Experimental readout: fold decrease in binding (Fc-variant KD/Fc-WT KD) (fold)

Binder	Data value
IgG1 Fc variant Fc-226^hg/290^hg (other, N-linked glycans at Asn297 and at engineered Asn226 and Asn290 (IgG1 heavy chain positions), Both CPP (226-228) and KPR (290-292) replaced by NST) EPKSCDKTHTNSTCPAPELLGGPSVFLFPPKPKDTLMISRTPEVTCVVVDVSHEDPEVKFNWYVDGVEVHNAKTNSTEEQYNSTYRVVSVLTVLHQDWLNGKEYKCKVSNKALPAPIEKTISKAKGQPREPQVYTLPPSREEMTKNQVSLTCLVKGFYPSDIAVEWESNGQPENNYKTTPPVLDSDGSFFLYSKLTVDKSRWQQGNVFSCSVMHEALHNHYTQKSLSLSPGK	30.1
IgG1 Fc variant Fc-226^hg/290^hg/S298A (other, N-linked glycans at Asn297 and at engineered Asn226 and Asn290 (IgG1 heavy chain positions)) EPKSCDKTHTNSTCPAPELLGGPSVFLFPPKPKDTLMISRTPEVTCVVVDVSHEDPEVKFNWYVDGVEVHNAKTNSTEEQYNATYRVVSVLTVLHQDWLNGKEYKCKVSNKALPAPIEKTISKAKGQPREPQVYTLPPSREEMTKNQVSLTCLVKGFYPSDIAVEWESNGQPENNYKTTPPVLDSDGSFFLYSKLTVDKSRWQQGNVFSCSVMHEALHNHYTQKSLSLSPGK	60.9
IgG1 Fc variant Fc-226^hg/290^hg/S298A/E333A/K334A (other, N-linked glycans at Asn297 and at engineered Asn226 and Asn290 (IgG1 heavy chain positions)) EPKSCDKTHTNSTCPAPELLGGPSVFLFPPKPKDTLMISRTPEVTCVVVDVSHEDPEVKFNWYVDGVEVHNAKTNSTEEQYNATYRVVSVLTVLHQDWLNGKEYKCKVSNKALPAPIAATISKAKGQPREPQVYTLPPSREEMTKNQVSLTCLVKGFYPSDIAVEWESNGQPENNYKTTPPVLDSDGSFFLYSKLTVDKSRWQQGNVFSCSVMHEALHNHYTQKSLSLSPGK	37.8
Fc-226^hg/290^hg/E333A/K334A (other, N-linked glycans at Asn297 and at engineered Asn226 and Asn290 (IgG1 heavy chain positions)) EPKSCDKTHTNSTCPAPELLGGPSVFLFPPKPKDTLMISRTPEVTCVVVDVSHEDPEVKFNWYVDGVEVHNAKTNSTEEQYNSTYRVVSVLTVLHQDWLNGKEYKCKVSNKALPAPIAATISKAKGQPREPQVYTLPPSREEMTKNQVSLTCLVKGFYPSDIAVEWESNGQPENNYKTTPPVLDSDGSFFLYSKLTVDKSRWQQGNVFSCSVMHEALHNHYTQKSLSLSPGK	12.2

meta.source: patent US20160280766A1
